Test: small molecules captured by biotinylated probe aFGF10 – biochemical, small-molecule microarray, fluorescence 635/667, stem cell growth factor project, primary screen (AID 1071);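 note: score merges 667 nm spot intensity and signal to noise from triplicate slides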
Conditions: higher = more signal
PROPERTY LABEL: composite z-score
Write the value as a bare number.

1. O=C1OCC=C[C@H]2OC34C=CCN(Cn5nnc6ccccc65)C(=O)[C@H]3N(CCCCCO)C(=O)[C@@H]4[C@@H]12 (stereo partly drawn)    -0.138

// sample C#CCOc1ccc(C[C@@H](C(=O)OC)N(CC#C)[C@@H](/C=C/C2CC2)[C@H](O)Cc2ccccc2)cc1 , its composite z-score was -0.207

// sample COCC(=C=CC[C@@H](O)c1ccc(OCCO)cc1)C[C@@H](O)c1ccccn1 , its composite z-score was 0.923

// sample C#CCN1[C@@H](Cc2ccc(O)cc2)C(=O)O[C@H](Cc2ccccc2)[C@@H]1/C=C/C1CC1 , its composite z-score was 0.199

// sample C=CCN1Cc2ccccc2[C@@H]2OC(c3ccc(OCCCO)cc3)=N[C@]2(CCS(=O)(=O)c2ccccc2)C1=O , its composite z-score was 0.345

// sample CO[C@H]1O[C@H](CO)[C@@H](OC(=O)Nc2ccc(Br)cc2)[C@@H]2OC(=O)[C@H](Cc3cccc(Br)c3)C/C=C/C[C@@H](Cc3cccc(Br)c3)C(=O)O[C@@H]12 , its composite z-score was 0.0489

// sample COC(=O)[C@]1(Cc2ccccc2)N=C(c2ccc(OCCCO)cc2)O[C@@H]1c1ccccc1N=[N+]=[N-] , its composite z-score was -0.13

// sample CC(C)C(=C=CC[C@H](O)c1ccc(CO)o1)CCO , its composite z-score was 0.153

----------
System: Wnt5a (protein binding on small-molecule microarray)
Assay: small molecules binding Wnt5a protein – biophysical, small-molecule microarray, 635/667 nm fluorescence, primary screen (AID 1142);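 note: fluorescence read at 667 nm with signal to noise per printed feature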
Details: 635 nm fluorescence, higher = more signal
The threshold is inclusive: composite z-score of exactly 0.6 counts as met; values below receive not met.

1) CC(C)[C@@H](C(=O)O)n1cc(C2(O)CCCCC2)nn1    not met
2) CC(C)N1CC=CC23O[C@@H]4C=CCOC(=O)[C@@H]4[C@H]2C(=O)N(CCCCCO)[C@@H]3C1=O (stereo not given in full)    not met
3) O=C1O[C@@H](c2ccccc2)[C@@H](c2ccccc2)N2[C@@H](c3ccccc3OCCO)[C@]3(C(=O)Nc4ccc(C#CC5(O)CCCCCC5)cc43)[C@@H](C(=O)N3CCN(c4ncccn4)CC3)[C@H]12    not met
4) COc1ccc(C(O)C2C=CC3C(=O)N(C)C(=O)C3N2N(c2ccccc2)c2ccccc2)c2ccccc12 (stereo not given)    not met

Q: Does the molecule COCCCNC(=O)[C@@]1(Cc2ccccc2CN=[N+]=[N-])N=C(c2ccc(OCCCO)cc2)O[C@H]1c1ccccc1CN=[N+]=[N-] have recorded composite z-score that is 0.6 or more?
A: met

Q: Does the molecule CC(C)(C)OC(=O)CC[C@@]1(C(=O)N2CCCCC2)N=C(c2ccc(OCCCO)cc2)O[C@@H]1c1ccccc1 have recorded composite z-score that is 0.6 or more?
A: met

Q: Does the molecule [N-]=[N+]=Nc1ccccc1C[C@@]1(C(=O)N2CCCCC2)N=C(c2ccc(OCCCO)cc2)O[C@@H]1c1ccccc1N=[N+]=[N-] have recorded composite z-score that is 0.6 or more?
A: met

Q: Does the molecule O=C1O[C@H](c2ccccc2)[C@H](c2ccccc2)N2[C@H]1[C@@H](C(=O)NC[C@H](O)c1ccccc1)[C@]1(C(=O)Nc3ccc(C#CC4=CCCCC4)cc31)[C@H]2c1ccccc1OCCO have recorded composite z-score that is 0.6 or more?
A: not met

Q: Does the molecule CN1CCC(CCCO)=CC1c1cccs1 (stereo not given) have recorded composite z-score that is 0.6 or more?
A: not met

Q: Does the molecule C=C(CCCC)/C(=C/C[C@@H](OC(C)=O)c1ccccc1OCCO)c1cc(C(=O)OC)ccc1OC have recorded composite z-score that is 0.6 or more?
A: not met

Q: Does the molecule COCC(=C=CC[C@H](O)c1cccc(OCCO)c1)C[C@H](O)c1cc(Cl)cc(Cl)c1O have recorded composite z-score that is 0.6 or more?
A: not met

Q: Does the molecule CCCC[C@H]1C[C@@H]1[C@@H]1N(P(=O)(c2ccccc2)c2ccccc2)C[C@@](O)(c2ccccc2)CC12CC2 have recorded composite z-score that is 0.6 or more?
A: not met

----------
Assay: plasmodial surface anion channel blockers, osmotic lysis – cell-based, P. falciparum Indochina, OD700, 2 h, primary screen (AID 1155);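 note: lysis reports solute entry through the parasite surface anion channel PSAC; channel blockers reduce lysis of infected cells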
Details: P. falciparum Indochina infected erythrocytes, higher = more signal, called active from +8 up or from −8 down
Note to self: class = bucket of z-score, per low bracket: < 0.9; middle bracket: ≥ 0.9 and < 7; high bracket: ≥ 7

For orientation, consider the following solved cases.
1. COC(=O)[C@@]1(Cc2ccccc2)[C@H]2c3cc(C(=O)N(C)C)n(Cc4ccc(OC)c(OC)c4)c3C[C@H]2CN1C(=O)c1ccccc1    middle bracket
2. COC(=O)[C@]1(Cc2ccccc2)N=C(c2ccc(OCCCO)cc2)O[C@@H]1c1ccccc1N=[N+]=[N-]    high bracket
3. CC(C)CNC(=O)[C@@]1(Cc2ccccc2I)c2ccccc2C(=O)N(Cc2ccccc2C(F)(F)F)[C@H]1c1ccc(CO)cc1    low bracket

Q: Lab note: sort CCOC(=O)C[C@H]1[C@H](OC(=O)c2cc3ccccc3oc2=O)[C@@H](NC(=O)CC(C)C)c2cc(OCCCO)ccc2N1C(=O)c1ccccc1 into the matching z-score band.
A: low bracket

Q: Lab note: sort O=C1C2C=CC(C(O)C=Cc3ccc([N+](=O)[O-])cc3)N(n3cnnc3)C2C(=O)N1Cc1ccccc1 (stereo unspecified) into the matching z-score band.
A: middle bracket

Q: Lab note: sort CN(C)CCCCNC(=O)[C@@H]1C[C@@H]2C(=O)N[C@@H](CCCCN)C(=O)N2[C@@H]1c1ccc(O)cc1 into the matching z-score band.
A: middle bracket

Q: Lab note: sort C=CC[C@@]1(C(=O)N2CCCCC2)N=C(c2ccc(OCCCO)cc2)O[C@@H]1c1ccccc1N=[N+]=[N-] into the matching z-score band.
A: high bracket

Q: Lab note: sort Cc1ccc([C@H]2C(C(=O)O)=CCN2S(=O)(=O)c2ccc(C)cc2)cc1 into the matching z-score band.
A: low bracket

Q: Lab note: sort C=CC[C@@]1(C(=O)N2CCCCC2)N=C(c2ccc(OCCCO)cc2)O[C@@H]1c1ccccc1CN=[N+]=[N-] into the matching z-score band.
A: high bracket

----------
Assay: probe aCHRDL2 binding to arrayed compounds – biochemical, biotinylated probe, 635/667 nm fluorescence, primary screen (AID 1100)
Conditions: small-molecule microarray, higher = more signal
PROPERTY LABEL: composite z-score
Write the value as a bare number.

Study these solved cases before continuing.
1) CCCCC(=C=CC[C@@H](O)c1cccc(OCCO)c1)C[C@@H](O)c1ccccn1    -0.387
2) CCCC(=O)N(CCc1c[nH]c2ccccc12)[C@@H]1CC(C(=O)NCCO)=C[C@H](Oc2c(I)cc(CO)cc2OC)[C@H]1O    -0.516
3) CN1CCC(CCCO)=CC1c1cccs1 (stereo not drawn)    -0.141
4) CN(C)C(=O)[C@]1(Cc2ccccc2)N=C(c2ccc(OCCCO)cc2)O[C@@H]1c1ccccc1N=[N+]=[N-]    1.05

Now let's try a different one.
// sample COC(=O)[C@@]1(Cc2ccccc2)[C@H]2c3cc(C(=O)N4CCCC4)n(Cc4c(CO)[nH]cc(C)c4=O)c3C[C@H]2CN1C(=O)c1ccccc1 , its composite z-score was 1.24

----------
Target: Neurogenic locus notch homolog protein 3 (Homo sapiens)
Test: small molecules binding NOTCH3 protein – biochemical, 635/667 nm fluorescence, primary screen (AID 1096)
Conditions: small-molecule microarray, 635 nm fluorescence, higher = more signal
Note to self: class = bucket of composite z-score, per low = under 0.4, moderate = from 0.4 up to 1, high = 1 and over

1) COCCOC(=O)N1C(=O)[C@@]2(c3ccccc31)[C@H](C(=O)N1CCc3cc(OC)c(OC)cc3C1)[C@H]1C(=O)O[C@H](c3ccccc3)[C@H](c3ccccc3)N1[C@@H]2c1ccc(O)cc1    moderate
2) C[C@H]1C2[C@H](Cc3ccccc3)NC(=O)[C@]23C(=O)NCC(=O)N2CCC[C@H]2C(=O)NC/C=C/CCC/C=C/C3[C@@H]2O[C@]12C (stereo not given in full)    low
3) CCCCCCc1nc(-c2ccc(-c3ccc(Cl)c(Cl)c3)o2)c(C)c2c1[Si](C(C)C)(C(C)C)OC2    low
4) C=C(/C(=C/C[C@H](OC(C)=O)c1ccc(OCCO)cc1)c1cc(C(=O)OC)ccc1OC)C(C)C    moderate
5) COc1ccc(C(O)C2C=CC3C(=O)N(C)C(=O)C3N2N(c2ccccc2)c2ccccc2)c2ccccc12 (stereo not given)    moderate
6) CS(=O)(=O)CCOC(=O)C1=CC(CCCO)=CC(C2CC2)N(Cc2cc3c(cc2Br)OCO3)C=C1C(=O)OCCS(C)(=O)=O (stereo not given)    moderate

Q: Lab note: sort COC(=O)[C@@]1(Cc2ccc(OC)cc2)[C@H]2c3cc(C(=O)N4CCCC4)n(Cc4nc5ccccc5[nH]4)c3C[C@H]2CN1C(=O)c1ccccc1 into the matching composite z-score band.
A: high

Q: Lab note: sort O=C1C[C@@](C(=O)NCc2ccccc2)(c2ccc([N+](=O)[O-])cc2)[C@@H](c2ccc(CO)cc2)N1CC12CC3CC(CC(C3)C1)C2 into the matching composite z-score band.
A: high

Q: Lab note: sort C[N+](C)(C)CCCC[C@@H]1NC(=O)[C@@H]2C[C@H](C(=O)NCCCCCN)[C@H](c3ccc(O)cc3)N2C1=O into the matching composite z-score band.
A: high

Q: Lab note: sort C=CC1c2cc(O)c(OC)cc2CCN1Cc1cccc(OC(F)(F)F)c1 (stereo not given) into the matching composite z-score band.
A: low

Q: Lab note: sort C=CCNC(=O)[C@@H]1[C@H]2C(=O)O[C@H](c3ccccc3)[C@H](c3ccccc3)N2[C@H](c2ccc(OCCO)cc2)[C@@]12C(=O)N(C(=O)OCCOC)c1ccc(C#CCC(C(=O)OC)C(=O)OC)cc12 into the matching composite z-score band.
A: high

Q: Lab note: sort O=C1O[C@H](c2ccccc2)[C@H](c2ccccc2)N2[C@H]1[C@@H](C(=O)N1CCN(c3ncccn3)CC1)[C@]1(C(=O)Nc3ccc(C#CC4=CCCCC4)cc31)[C@H]2c1ccccc1OCCO into the matching composite z-score band.
A: high

Q: Lab note: sort COc1cc2c(cc1O)C=[N+](Cc1cc3c(cc1Br)OCO3)CC2 into the matching composite z-score band.
A: low
